System: MDCK p60AmotL2-inducible + doxycycline (p60AmotL2 expressing)
assay.summary: drug sensitivity score (DSS) from 5-dose viability curve (DSS (area-based score, 0 = no response)); higher = more sensitive (stronger viability inhibition); extreme values may be limits of the assay
condition.context: doxycycline: 10 ng/mL; 72 h
readout: drug sensitivity score

compound="CC(C)(C)c1nc(-c2cccc(NS(=O)(=O)c3c(F)cccc3F)c2F)c(-c2ccnc(N)n2)s1 [Dabrafenib]" target_desc="MDCK p60AmotL2-inducible + doxycycline (p60AmotL2 expressing)" readout="drug sensitivity score" reported_value=0
compound="COc1ccc(COc2cc3oc(=O)c4cc(C(C)O)ccc4c3cc2OC)cc1 (configuration not stated) [Palomid-529]" target_desc="MDCK p60AmotL2-inducible + doxycycline (p60AmotL2 expressing)" readout="drug sensitivity score" reported_value=0.1
compound="Cc1cc([C@@H](C)Nc2ccccc2C(=O)O)c2nc(N3CCOCC3)cc(=O)n2c1 [AZD-6482]" target_desc="MDCK p60AmotL2-inducible + doxycycline (p60AmotL2 expressing)" readout="drug sensitivity score" reported_value=0
compound="Cc1sc2c(c1C)C(c1ccc(Cl)cc1)=N[C@@H](CC(=O)Nc1ccc(OCCOCCOCCOCCNc3cccc4c3C(=O)N(C3CCC(=O)NC3=O)C4=O)cc1)c1nnc(C)n1-2 (some centres not stated) [ARV-825]" target_desc="MDCK p60AmotL2-inducible + doxycycline (p60AmotL2 expressing)" readout="drug sensitivity score" reported_value=11.2
compound="CC(C)Cn1cnc2c(N)nc3ccccc3c21 [Imiquimod]" target_desc="MDCK p60AmotL2-inducible + doxycycline (p60AmotL2 expressing)" readout="drug sensitivity score" reported_value=0.3
compound="CC(C)Nc1cc(-c2c[nH]c(C(=O)N[C@H](CO)c3cccc(Cl)c3)c2)c(Cl)cn1 [Ulixertinib]" target_desc="MDCK p60AmotL2-inducible + doxycycline (p60AmotL2 expressing)" readout="drug sensitivity score" reported_value=9.6
compound="Cc1[nH]nc(C(F)(F)F)c1Cc1sc2c(c1C(=O)N1C[C@](C)(O)CO1)c(=O)n(C)c(=O)n2C(C)C [AZD3965]" target_desc="MDCK p60AmotL2-inducible + doxycycline (p60AmotL2 expressing)" readout="drug sensitivity score" reported_value=4.5
